- System: SEM cells
- procedure_summary: cell viability relative to DMSO control; higher = less cytotoxic
- measurement_parameters: RPMI 5 mM glucose + 10% dialyzed FBS; 48 h; 0.00234 µM
property_measured: cell viability (%)
Give just the numeric value; % need not be written.

# annotated cases, reported cell viability shown
C[C@]12CC[C@H]3[C@@H](CCC/4=C/C(=O)CC[C@]34C)[C@@H]1CC[C@@H]2OC(=O)CCC5CCCC5	105
CC(C)C[C@H](NC(=O)[C@@H](O)[C@H](N)Cc1ccccc1)C(=O)O	119
COC(=O)\C1=C\CCN(C)C1	111
N#C/C(C(=O)c1ccc(Cl)cc1Cl)=C1/NC(=O)c2ccc(Cl)cc2N1	125
CN(C)C1=C(Br)C=C(C=C1)C\2NC3=C(\C4=C2C(=O)CC(C)(C)C4)C5=CC=CC=C5C=C3 (centres undefined)	112

Provide cell viability value for the following compound: CC(NCCc1ccc(O)cc1)C(O)c1ccc(O)cc1 (centres undefined)
119

Find the measured cell viability of CNC(=O)Nc1ccc(-c2nc(N3CC4CCC(C3)O4)c3cnn(C4CCC5(CC4)OCCO5)c3n2)cc1 and report it.
106

Note cell viability for the compound shown: Cc1onc(-c2ccccc2)c1C(=O)N[C@@H]1C(=O)N2[C@@H]1SC(C)(C)[C@@H]2C(=O)[O-].[Na+]
104

// fetch cell viability given entry CN1CCN(C(=O)O[C@H]2c3nccnc3C(=O)N2c2ccc(Cl)cn2)CC1
105
